For each record, write down the corresponding pEC50.
- System: CCRF-CEM
- assay-comment: Antiviral activity was measured on HIV-1 in wild-type CEM/O cells
- Type: functional, cell-based, Homo sapiens
- applied-conditions: Homo sapiens, CCRF-CEM
pEC50 is defined as minus the log10 of a concentration measured in mol/L.

Record COc1ccc2c(c1)COP(=O)(OC[C@@H]1C=C[C@H](n3cc(C)c(=O)[nH]c3=O)O1)O2 (some centres undefined) . Reported pEC50: 6.74

Measured pEC50, Cc1cccc2c1OP(=O)(OC[C@@H]1C=C[C@H](n3cc(C)c(=O)[nH]c3=O)O1)OC2 (some centres undefined) : 7.06

The reported pEC50 of the molecule Cc1cn([C@H]2C=C[C@@H](CO)O2)c(=O)[nH]c1=O [STAVUDINE] was 6.74

Reported pEC50 ( Cc1cn([C@H]2C=C[C@@H](COP3(=O)OCc4cc([N+](=O)[O-])ccc4O3)O2)c(=O)[nH]c1=O (some centres undefined) ) = 6.54

// pEC50 lookup, molecule = Cc1cn([C@H]2C[C@H](N=[N+]=[N-])[C@@H](CO)O2)c(=O)[nH]c1=O [ZIDOVUDINE] , result: 8.15

pEC50 measured on COc1cccc2c1OP(=O)(OCC1C=CC(n3cc(C)c(=O)[nH]c3=O)O1)OC2 (centres undefined) = 6.77

###

- System: CCRF-CEM
- assay-comment: Antiviral activity was measured on HIV-1 in wild-type CEM/O cells for R configuration
- Format: functional, cell-based
- applied-conditions: Homo sapiens
reported-metric: EC50 (nM)
Number only, in nM; omit the unit.

// sample Cc1cccc2c1OP(=O)(OC[C@@H]1C=C[C@H](n3cc(C)c(=O)[nH]c3=O)O1)OC2 (some centres not stated) , its EC50 was 80

According to the records, this compound COc1cccc2c1OP(=O)(OCC1C=CC(n3cc(C)c(=O)[nH]c3=O)O1)OC2 (configuration not stated) displays EC50 of 140

###

- assay-comment: Half-life period was measured in 30 mM sodium borate buffer at pH 8.9 at 37 degree C
- Format: ADME
Can you tell me half-life for the items I'm about to list?
Give the quantity in h, number only.

Value of half-life reported for the compound Cc1cccc2c1OP(=O)(OC[C@@H]1C=C[C@H](n3cc(C)c(=O)[nH]c3=O)O1)OC2 (stereo partly drawn) is 1.5

For record COc1cccc2c1OP(=O)(OCC1C=CC(n3cc(C)c(=O)[nH]c3=O)O1)OC2 (stereo not drawn) the listed half-life is 0.4

Item: COc1ccc2c(c1)COP(=O)(OC[C@@H]1C=C[C@H](n3cc(C)c(=O)[nH]c3=O)O1)O2 (stereo partly drawn) | half-life: 1.07

###

- assay-comment: Half-life period was measured in RPMI-1640 culture medium at 37 degree C with 10% heat-inactivated fetal calf serum..
- Assay type: ADME
- applied-conditions: cattle
reported-metric: half-life (h)
Unit h implied. Number only.

Quick note, half-life for COc1cccc2c1OP(=O)(OCC1C=CC(n3cc(C)c(=O)[nH]c3=O)O1)OC2 (stereo not drawn) landed at 2

In plain terms, Cc1cccc2c1OP(=O)(OC[C@@H]1C=C[C@H](n3cc(C)c(=O)[nH]c3=O)O1)OC2 (stereo partly drawn) has a documented half-life of 9.1

Lookup result for COc1ccc2c(c1)COP(=O)(OC[C@@H]1C=C[C@H](n3cc(C)c(=O)[nH]c3=O)O1)O2 (stereo partly drawn) ; measured half-life: 4.3

###

- assay-comment: Half-life period was measured in 30 mM TRIS buffer at pH 6.9 at 37 degree C
- Type: ADME
Would you kindly list half-life for each of these compounds?
Please don't drop the unit; write it after the number.

Value of half-life reported for the compound COc1ccc2c(c1)COP(=O)(OC[C@@H]1C=C[C@H](n3cc(C)c(=O)[nH]c3=O)O1)O2 (stereo partly drawn) is 28.3 h

Sample COc1cccc2c1OP(=O)(OCC1C=CC(n3cc(C)c(=O)[nH]c3=O)O1)OC2 (stereo not drawn) ; half-life observed: 9.5 h

In plain terms, Cc1cccc2c1OP(=O)(OC[C@@H]1C=C[C@H](n3cc(C)c(=O)[nH]c3=O)O1)OC2 (stereo partly drawn) has a documented half-life of 68.5 h

###

- System: MT4
- assay-comment: Antiviral activity was measured on HIV-1 in MT-4 cells
- Format: functional, cell-based
- applied-conditions: Homo sapiens
reported-metric: EC50 (µM)
Answer format: numeric, µM implied, no suffix.

Lookup result for Cc1cn(C2C=CC(COP3(=O)OCc4cc(Cl)ccc4O3)O2)c(=O)[nH]c1=O (stereo not drawn) ; measured EC50: 0.031

Form field EC50, entry Cc1cccc2c1OP(=O)(OC[C@@H]1C=C[C@H](n3cc(C)c(=O)[nH]c3=O)O1)OC2 (stereo partly drawn) : 0.028

get_value(item= Cc1cn([C@H]2C=C[C@@H](CO)O2)c(=O)[nH]c1=O [STAVUDINE] , readout=EC50) returns 0.018

###

Provide the reported Pa of each item.
- assay-comment: Partition coefficient was measured.
- Assay type: ADME
- applied-conditions: octanol/water
API note: the answer field is a bare number with no unit suffix.

Field Pa (entry Cc1cn([C@H]2C=C[C@@H](COP3(=O)OCc4ccccc4O3)O2)c(=O)[nH]c1=O (some centres undefined) ) reads 1.9

Pa reading for Cc1ccc2c(c1)COP(=O)(OC[C@@H]1C=C[C@H](n3cc(C)c(=O)[nH]c3=O)O1)O2 (some centres undefined) : 5.4

Pa recorded for this compound, COc1ccc2c(c1)COP(=O)(OC[C@@H]1C=C[C@H](n3cc(C)c(=O)[nH]c3=O)O1)O2 (some centres undefined) , is 2.3

// Cc1cccc2c1OP(=O)(OC[C@@H]1C=C[C@H](n3cc(C)c(=O)[nH]c3=O)O1)OC2 (some centres undefined) : Pa value = 5.1

Reported Pa of COc1cccc2c1OP(=O)(OCC1C=CC(n3cc(C)c(=O)[nH]c3=O)O1)OC2 (centres undefined) : 1.4

Value of measured Pa for the entry Cc1cn([C@H]2C=C[C@@H](CO)O2)c(=O)[nH]c1=O : 0.15

Recorded result, Cc1cn([C@H]2C=C[C@@H](COP3(=O)OCc4cc([N+](=O)[O-])ccc4O3)O2)c(=O)[nH]c1=O (some centres undefined) , Pa: 1.5

Please fill in: Pa reported for Cc1cc(C)c2c(c1)COP(=O)(OCC1C=CC(n3cc(C)c(=O)[nH]c3=O)O1)O2 (centres undefined) = 15.3

# Pa (compound: Cc1cn(C2C=CC(COP3(=O)OCc4cc(Cl)ccc4O3)O2)c(=O)[nH]c1=O (centres undefined) ) is 7.6

###

Please respond with reported half-life for every item in the list.
- assay-comment: Half-life period was measured in RPMI-1640 culture medium at 37 degree C without FCS.
- Assay type: ADME
- applied-conditions: RPMI-1640 culture medium without FCS
Number in h, nothing else.

Entry Cc1cccc2c1OP(=O)(OC[C@@H]1C=C[C@H](n3cc(C)c(=O)[nH]c3=O)O1)OC2 (stereo partly drawn) — recorded half-life = 16

The value of half-life measured for the compound COc1cccc2c1OP(=O)(OCC1C=CC(n3cc(C)c(=O)[nH]c3=O)O1)OC2 (stereo not drawn) turned out to be 3.2

For reference, reported half-life for COc1ccc2c(c1)COP(=O)(OC[C@@H]1C=C[C@H](n3cc(C)c(=O)[nH]c3=O)O1)O2 (stereo partly drawn) stands at 7.2

###

- assay-comment: Half-life period was measured in 30 mM sodium phosphate buffer at pH 7.3 at 37 degree C
- Assay type: ADME
I'd be grateful if you could share measured half-life for these entries.
Just the number in h, nothing appended.

Record summary for COc1cccc2c1OP(=O)(OCC1C=CC(n3cc(C)c(=O)[nH]c3=O)O1)OC2 (stereo not drawn) : reported half-life = 1.4

// recorded half-life for COc1ccc2c(c1)COP(=O)(OC[C@@H]1C=C[C@H](n3cc(C)c(=O)[nH]c3=O)O1)O2 (stereo partly drawn) : 7.2

Entry Cc1cccc2c1OP(=O)(OC[C@@H]1C=C[C@H](n3cc(C)c(=O)[nH]c3=O)O1)OC2 (stereo partly drawn) ; half-life = 10.2

###

I'd be grateful if you could share measured EC50 for these entries.
- Tested on: CCRF-CEM
- assay-comment: Antiviral activity was measured on HIV-2 in mutant thymidine kinase-deficient CEM/TK- cells
- Format: functional, cell-based
- applied-conditions: Homo sapiens
Please respond with the number in nM and leave the unit unwritten.

Reported EC50 of COc1ccc2c(c1)COP(=O)(OC[C@@H]1C=C[C@H](n3cc(C)c(=O)[nH]c3=O)O1)O2 (stereo not given in full) : 800

// EC50 lookup, molecule = COc1cccc2c1OP(=O)(OCC1C=CC(n3cc(C)c(=O)[nH]c3=O)O1)OC2 (stereo not given) , result: 170

EC50 recorded for this molecule, Cc1cn([C@H]2C=C[C@@H](CO)O2)c(=O)[nH]c1=O , is 15000

Reported EC50 ( Cc1cccc2c1OP(=O)(OC[C@@H]1C=C[C@H](n3cc(C)c(=O)[nH]c3=O)O1)OC2 (stereo not given in full) ) = 93
